The values you see were collected from paper PMC9352680.

# Tested system: T1, PUF4 RNA-binding domain (Saccharomyces cerevisiae, UniProt P25339 537-888)
# T1 sequence: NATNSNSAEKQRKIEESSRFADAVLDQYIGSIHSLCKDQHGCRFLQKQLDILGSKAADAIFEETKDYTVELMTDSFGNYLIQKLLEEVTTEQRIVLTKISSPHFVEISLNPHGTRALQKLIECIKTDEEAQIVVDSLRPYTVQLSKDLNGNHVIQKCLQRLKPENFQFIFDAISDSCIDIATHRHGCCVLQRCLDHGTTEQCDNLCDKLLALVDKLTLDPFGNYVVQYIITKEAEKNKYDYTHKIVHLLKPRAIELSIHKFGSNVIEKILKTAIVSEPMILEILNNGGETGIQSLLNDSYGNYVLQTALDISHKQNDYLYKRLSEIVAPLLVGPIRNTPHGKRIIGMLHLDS
# Assay text: Mg; RNA-MaP; 20 mM Na-HEPES pH 7.4, 30 mM KOAc, 0.75 mM MgCl2, 0.1% Tween-20, 5% glycerol, 0.1 mg/mL BSA, 2 mM DTT; 25 C; 0.0125-409.6 nM protein
# Details: tags: N-His6-TEV cleaved; C-SNAP kept, Cy3B-labelled; label: tethered on chip by stalled RNA polymerase
pKd: −log10 of the molar value.
Dear colleague, classification is by pKd, with ranges listed here: group A (below 7), group B (7 to below 8), group C (8 or more)

{"Binder": "Ic_S4_P4E.1_K4.1_C4.1_H4.1_A4.1_[T5C]_[A6C]_[T7A]_F4.1_[T8A]_[A9T]_T4.1 (ssRNA) RNA: UUUGACAACUGAUCGUUCUUUCUUGUACCAAUUUCUUUCUCGAUCAGUUGUCUUU", "Answer label": "group B"}
{"Binder": "UCUCUUAUUGUAUAUUAGUUCUCUU (ssRNA) [Id_ii_S1_P4E.2_K4.1_C4.2_[C-2A]_H4.1_A4.1_F4.1_T4.2]", "Answer label": "group C"}
{"Binder": "Id_ii_S2_P5E.2_K5.1_C5.2_[C-2G]_H5.1_A5.1_F5.1_T5.2_[T11A]_[A12T] (ssRNA) RNA: UUUGAUUAAUAUGAUAUCGUUCUUUCUGUUGUAUUAUUAAUUUCUUUCUCGAUAUCAUAUUAAUCUUU", "Answer label": "group C"}
{"Binder": "Id_ii_S2_P5E.4_K5.3_C5.2_[T-1G]_H5.3_A5.1_F5.1_T5.2 (ssRNA) RNA: UUUGAUUAAUAUGAUAUCGUUCUUUCUCGACACUUAUUAUAUUCUUUCUCGAUAUCAUAUUAAUCUUU", "Answer label": "group A"}
{"Binder": "UCUCUUUCCUGUAUUUAAGUUCUCUU (ssRNA) [Id_iii_S1_P4E.9_K4.5_C4.3_[T-1C]_H4.1_A4.2_F4.2_T4.2]", "Answer label": "group A"}
{"Binder": "Id_iii_S2_P3E.6_K3.2_C3.3_H3.2_A3.1_F3.1_T3.2_[T9A] (ssRNA) RNA: UUUGAUUAAUAUGAUAUCGUUCUUUCUUCUUAUAUAUAAAUUCUUUCUCGAUAUCAUAUUAAUCUUU", "Answer label": "group A"}
{"Binder": "UCUCUUAGUGUAUAUUAUUUCUCUU (ssRNA) [Id_ii_S1_P4E.2_K4.1_C4.2_[C-2A]_[T-1G]_H4.1_A4.1_F4.1_T4.2_[G10T]]", "Answer label": "group C"}
{"Binder": "Ia_S4_P3E.1_K3.1_C3.1_H3.1_A3.1_F3.1_[T7A]_T3.1 (ssRNA) RNA: UUUGACAACUGAUCGUUCUUUCUUGUAUAAAUUCUUUCUCGAUCAGUUGUCUUU", "Answer label": "group B"}
{"Binder": "UCUCUUUAACACUUAUUAUAUCUCUU (ssRNA) [Id_ii_S1_P5E.4_K5.3_C5.2_[C-2T]_[T-1A]_H5.3_A5.1_F5.1_T5.2]", "Answer label": "group A"}
